target: hmGluR1 receptor (Homo sapiens, UniProt Q13255); construct: expressed in transfected cells; host or cells: CHO; experiment: IC50 Determination: intracellular calcium mobilization (FLIPR) in a CHO cell line stably expressing hmGluR1 receptor, against Quisqualate; format: cell-based; conditions: CHO cells expressing hmGluR1; against Quisqualate 1 μM (EC80); compounds added 10 minutes before agonist; read-out: mGluR1 IC50 rating
Sequence (Q13255 19-1194): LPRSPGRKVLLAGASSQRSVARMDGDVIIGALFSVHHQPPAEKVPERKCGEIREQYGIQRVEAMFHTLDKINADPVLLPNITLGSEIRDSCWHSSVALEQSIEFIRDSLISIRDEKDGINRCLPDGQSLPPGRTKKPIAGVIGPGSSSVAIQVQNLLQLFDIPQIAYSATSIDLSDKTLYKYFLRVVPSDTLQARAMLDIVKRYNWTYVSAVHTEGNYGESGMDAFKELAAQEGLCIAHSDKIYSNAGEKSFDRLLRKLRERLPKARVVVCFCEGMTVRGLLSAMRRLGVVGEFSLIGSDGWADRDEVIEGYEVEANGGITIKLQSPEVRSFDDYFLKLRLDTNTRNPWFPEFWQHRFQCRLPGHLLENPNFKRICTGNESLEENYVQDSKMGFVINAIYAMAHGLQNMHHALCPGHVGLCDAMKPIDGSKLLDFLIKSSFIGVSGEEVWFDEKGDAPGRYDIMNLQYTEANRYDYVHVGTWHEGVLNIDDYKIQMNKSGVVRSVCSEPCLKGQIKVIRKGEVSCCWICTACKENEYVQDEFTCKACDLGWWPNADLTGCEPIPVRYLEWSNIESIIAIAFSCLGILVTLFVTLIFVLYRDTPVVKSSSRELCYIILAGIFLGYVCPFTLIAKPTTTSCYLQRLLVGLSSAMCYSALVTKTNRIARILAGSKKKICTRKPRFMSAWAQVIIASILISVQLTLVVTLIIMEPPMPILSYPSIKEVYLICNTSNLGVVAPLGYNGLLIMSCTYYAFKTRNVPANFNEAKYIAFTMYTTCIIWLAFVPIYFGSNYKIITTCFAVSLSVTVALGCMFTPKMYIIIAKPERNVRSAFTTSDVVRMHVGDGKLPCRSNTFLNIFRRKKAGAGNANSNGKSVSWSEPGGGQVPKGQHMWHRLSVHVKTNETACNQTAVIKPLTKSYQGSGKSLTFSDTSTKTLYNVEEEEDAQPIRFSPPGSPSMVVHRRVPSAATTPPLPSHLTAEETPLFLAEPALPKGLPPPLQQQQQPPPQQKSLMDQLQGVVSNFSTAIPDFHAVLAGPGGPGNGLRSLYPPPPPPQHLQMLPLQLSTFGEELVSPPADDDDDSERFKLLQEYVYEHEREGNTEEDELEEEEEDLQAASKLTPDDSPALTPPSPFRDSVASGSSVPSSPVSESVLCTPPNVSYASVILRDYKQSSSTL
pIC50: −log10 of the molar value.
experimental.readout: pIC50

Examples with their reported pIC50 follow.
Cc1ccc(-n2cnc3c(sc4ncc5cn[nH]c5c43)c2=O)cc1 [Compound 20b] :: > 7.70
C[C@H](O)CNc1c(Br)cnc2sc3c(=O)n(-c4ccc(Cl)cc4)cnc3c12 [Compound 37c] :: < 6.00
Cn1ccc2cnc3sc4c(=O)n(C5CCCCC5)cnc4c3c21 :: 7.00 to 7.70

Turning now to a further record.
Recorded pIC50 (compound Cc1ccc(-n2cnc3c(sc4ncc5c(c43)NC[C@@H](C)O5)c2=O)cc1 [Compound 38g] ): > 7.70
